# System: Hela cell
# test.summary: Sulforhodamine B proliferation
# Format: cell-based
# test.parameters: Homo sapiens, SRB method of Example 2, FIG. 3, read-out: Half inhibitory concentration to Hela cell proliferation
measure: pIC50
One number for each entry, as −log10 of the molar value.

Request: Assign pIC50 to the following record: C=C(C)n1c(=O)n(C(C)=O)c2ncc(Br)cc21 [FD162]
Result: 5.44

###

Kindly state Inhibitory rate % (A549) for each of the entries shown.
# Test system: A549
# test.summary: Sulforhodamine B proliferation
# Format: cell-based
# test.parameters: 10 μM, 72 h, SRB
# Description: At a certain density cells were seeded in 96-well plates, and adhered overnight. The medium was discarded after incubating cells with compounds to be tested for 72 h, then 100μL/well trichloroacetic acid (TCA) was added to fix cells at 4° C. for 2h. After that the fixing solution was discarded. Cells were gently washed 5 times with distilled water, dried at room temperature. […] The OD values were measured at 540 nm wavelength in a microplate reader. […]
One number for each entry, in %.

Solved entries:
>>> recorded_number("C=C(C)n1c(=O)n(C(C)=O)c2ccc([N+](=O)[O-])cc21 [FD2]")
3.4
>>> recorded_number("C=C(C)n1c(=O)n(C(=O)CCC)c2cc([N+](=O)[O-])ccc21 [FD12]")
3.8
>>> recorded_number("C=C(C)n1c(=O)n(C(C)=O)c2ccc([N+](=O)[O-])cc21 [FD1]")
9.6
>>> recorded_number("C=C(C)n1c(=O)n(C(=O)CCC)c2ccc([N+](=O)[O-])cc21 [FD11]")
2.4

// for each molecule in input: emit Inhibitory rate % (A549)
1. C=C(C)n1c(=O)n(C(=O)CCC)c2ccc([N+](=O)[O-])cc21 [FD9]
2. NC1(c2ccc(-c3nc4ccn5c(=O)[nH]nc5c4cc3-c3ccccc3)cc2)CCC1 [MK2206, reference compound]

Result:
[1.1, 61.0]
